MIC (DAC) for assorted compounds
tested on: clinical strain CMS; assay: Inoculum effect on clinical strains on the DAC system; format: cell-based, Mycobacterium tuberculosis; details: inoculum 10^5/mL, DAC, unit inferred

smiles.repr	MIC (DAC) (µg/mL)
CO[C@H]1/C=C/O[C@@]2(C)Oc3c(C)c(O)c4c(O)c(c(/C=N/N5CCN(C)CC5)c(O)c4c3C2=O)NC(=O)/C(C)=C\C=C\[C@H](C)[C@H](O)[C@@H](C)[C@@H](O)[C@@H](C)[C@H](OC(C)=O)[C@@H]1C	0.25
CC[C@@H](CO)NCCN[C@@H](CC)CO	1.25
[H]/N=C(/N)N[C@H]1[C@H](O)[C@@H](O)[C@H](O[C@@H]2O[C@@H](C)[C@](O)(C=O)[C@H]2O[C@@H]2O[C@@H](CO)[C@H](O)[C@@H](O)[C@@H]2NC)[C@@H](N/C(N)=N\[H])[C@@H]1O	0.5
NNC(=O)c1ccncc1	0.025

----------
tested on: M. tuberculosis H37Rv; test: DST of MTB using the DAC system (MIC from time-lapse images); assay type: cell-based, Mycobacterium tuberculosis
value.type: susceptibility determined from the MIC data and the critical concentrations

compound	experimental.value
[H]/N=C(/N)N[C@H]1[C@H](O)[C@@H](O)[C@H](O[C@@H]2O[C@@H](C)[C@](O)(C=O)[C@H]2O[C@@H]2O[C@@H](CO)[C@H](O)[C@@H](O)[C@@H]2NC)[C@@H](N/C(N)=N\[H])[C@@H]1O [SM, streptomycin]	R
CC[C@@H](CO)NCCN[C@@H](CC)CO [EMB, ethambutol]	S
NNC(=O)c1ccncc1 [INH, isoniazid]	S
CO[C@H]1/C=C/O[C@@]2(C)Oc3c(C)c(O)c4c(O)c(c(/C=N/N5CCN(C)CC5)c(O)c4c3C2=O)NC(=O)/C(C)=C\C=C\[C@H](C)[C@H](O)[C@@H](C)[C@@H](O)[C@@H](C)[C@H](OC(C)=O)[C@@H]1C [RFP, rifampicin]	S
